# Test system: CAKI-1 renal
# Test description: NCI tumour cell line growth inhibition, 48 h; in the data active means GI50 below about 0.43 µM; inactive means the rest
Hi there, use one of these labels in your reply, thanks! T = active, F = inactive

>>> print(df.to_string())
                                   compound  classification
0  O=C(c1ccccc1)c1c(C(F)(F)F)n([O-])c2cc(C(F)(F)F)ccc2[n+]1=O               F
1                   NC(N)=NC(N)=NCCCc1ccco1               F
2  O=C1C(=O)c2ccccc2C(O)=C1CCCc1ccc(C2CCCCC2)cc1               F
3  O=CN1N=C(c2cccc(Nc3ccnc4cc(Cl)ccc34)c2)CC1c1ccccc1 (stereo not given)               T

Now for another entry.
What did this assay record as the result for CC([C@H]1CC=C2C3CCC4=C[C@@H](N(C)C)CC[C@]4(C)C3CC[C@@]21C)N(C)C (stereo not given in full) ?
F
